All figures here come from patent US10035790B2.

For each of the compounds below, state its IC50.
# tested-on: ligand binding domain of human RORγ (A262-S507) (Homo sapiens)
# Construct: made in house; host or cells: E. coli
# Sequence (P51449 262-507): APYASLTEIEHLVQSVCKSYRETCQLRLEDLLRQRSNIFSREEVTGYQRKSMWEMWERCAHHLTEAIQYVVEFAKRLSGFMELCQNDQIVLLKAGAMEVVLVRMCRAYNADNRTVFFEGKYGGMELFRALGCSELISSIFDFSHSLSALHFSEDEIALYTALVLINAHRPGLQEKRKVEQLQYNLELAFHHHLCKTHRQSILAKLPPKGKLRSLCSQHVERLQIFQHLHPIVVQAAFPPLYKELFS
# measurement-description: General RORγ SPA binding assay (competition with [3H]25-hydroxycholesterol)
# assay-context: RORγ SPA binding assay, inhibition of [3H]25-hydroxycholesterol binding; read-out: IC50
Record the value in nM, omitting the unit from your answer.

query: Sample COc1nc(C)c(C(O)COc2ccnc(C(F)(F)F)n2)c(C2CCN(C(=O)Nc3c(F)cccc3F)CC2)n1 (stereo not shown) [Compound N8] — what was its IC50?
result: 4.8

query: Similarly, Cc1cc(C)cc(CNC(=O)c2cnc(C)nc2C2CCN(C(=O)Cc3ccccc3F)CC2)c1 [Compound A12] ?
result: 50

query: Consider next the compound COc1cccc(O/N=C(\C)c2cnc(C)nc2C2CCN(C(=O)Cc3c(F)cccc3F)CC2)c1 [Compound B21] in the same way.
result: 23.7

query: Then this compound: Cc1nc(C)c(C(=O)NCc2cccc(C(F)(F)F)n2)c(C2CCN(C(=O)Cc3c(F)cccc3F)CC2)n1 [Compound A82]
result: 6.2
